The measurements presented in this section are drawn from patent US20250353873A1.

- Test system: human APOE RNA
- experimentalProtocol: Dose-dependent inhibition of human APOE RNA in HepG2 cells, electroporation, 24 hours (Example 6)
- Assay type: cell-based
- measurementConditions: 20,000 nM
Strand notation (5' to 3'): a small letter for the sugar, then the base; units joined by * are phosphorothioate-linked, units joined directly phosphodiester-linked; [ ] holds rarer units or linkages, { } end groups; capitals alone tell only the bases. [ms] = mesyl phosphoramidate linkage; e = 2'-O-(2-methoxyethyl) (MOE); k = constrained ethyl (cEt); [5mC] = 5-methylcytosine; d = 2'-deoxy (DNA)
Classify as follows. Reported APOE RNA (% UTC) greater than or equal to 8 % UTC: yes. Reported APOE RNA (% UTC) below: no.

• 1693105: 6-10-4 MOE gapmer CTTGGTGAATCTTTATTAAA, linkages sosssszzzssssszssss (e[5mC]*eTeT*eG*eG*eT*dG[ms]dA[ms]dA[ms]dT*d[5mC]*dT*dT*dT*dA[ms]dT*eT*eA*eA*eA) [compound 1693105] = no
• 1736532 (e[5mC]*eT*eT*eG*kG*kTdG[ms]dA[ms]dA[ms]dT*d[5mC]*dT*dT*dT*dA[ms]dT*eT*eA*eA*eA; antisense) [Compound 1736532] = no
• 1736526: 6-10-4 MOE gapmer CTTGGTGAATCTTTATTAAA, linkages ssoooszzsssssssssss (e[5mC]*eT*eTeGeGeT*dG[ms]dA[ms]dA*dT*d[5mC]*dT*dT*dT*dA*dT*eT*eA*eA*eA) [compound 1736526] = yes
• 1736514 (e[5mC]*eTeT*eG*kG*kT*dG[ms]dA[ms]dA[ms]dT*d[5mC]*dT*dT*dT*dA[ms]dT*eT*eA*eA*eA; antisense) [Compound 1736514] = no
• 1693102: 6-10-4 MOE gapmer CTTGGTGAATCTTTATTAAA, linkages ssssoszzzssssszssss (e[5mC]*eT*eT*eG*eGeT*dG[ms]dA[ms]dA[ms]dT*d[5mC]*dT*dT*dT*dA[ms]dT*eT*eA*eA*eA) [compound 1693102] = yes
• 1736492 (e[5mC]*eTeT*eG*eG*eT*dG[ms]dA[ms]dA[ms]dT*d[5mC]*dT*dT*dT*dA[ms]dT*kT*eA*eA*eA; antisense) [Compound 1736492] = yes
• 1736518: 6-10-4 MOE gapmer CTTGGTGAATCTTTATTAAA, linkages soossszzzssssssssss (e[5mC]*eTeTeG*eG*eT*dG[ms]dA[ms]dA[ms]dT*d[5mC]*dT*dT*dT*dA*dT*eT*eA*eA*eA) [compound 1736518] = yes
• 1736520: 6-10-4 MOE gapmer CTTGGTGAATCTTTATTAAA, linkages sossoszzzssssssssss (e[5mC]*eTeT*eG*eGeT*dG[ms]dA[ms]dA[ms]dT*d[5mC]*dT*dT*dT*dA*dT*eT*eA*eA*eA) [compound 1736520] = yes

* * *

- System: human APOE RNA
- experimentalProtocol: Dose-dependent inhibition of human APOE RNA in HepG2 cells, electroporation, 50,000 cells per well, RT-PCR normalized to GAPDH (Example 4, Tables 8-10)
- Format: cell-based
- measurementConditions: 205 nM; HepG2, electroporation, 16-hour treatment
- Procedure: Modified oligonucleotides selected from the examples above were tested at various doses in HepG2 cells. The modified oligonucleotides were tested in a series of experiments that had the same culture conditions. Each experiment is identified in separate tables below. HepG2 cells plated at a density of 50,000 cells per well were treated by electroporation with various concentrations of modified oligonucleotide as specified in the tables below. […]
Strand notation (5' to 3'): a small letter for the sugar, then the base; units joined by * are phosphorothioate-linked, units joined directly phosphodiester-linked; [ ] holds rarer units or linkages, { } end groups; capitals alone tell only the bases. [ms] = mesyl phosphoramidate linkage; e = 2'-O-(2-methoxyethyl) (MOE); k = constrained ethyl (cEt); [5mC] = 5-methylcytosine; d = 2'-deoxy (DNA)
Parameter: APOE RNA (% UTC). Scope: all listed entries.
measuredEndpoint: APOE RNA (% UTC)

• 1757566 (eA*e[5mC]eTkTkG*dG*dT*dG*dA*dA*dT*d[5mC]*dT*dT*dT*eAeTeT*eA*eA; antisense) [Compound 1757566] = 77
• 1757574 (eA*e[5mC]eTeT*eG*eG*dT*dG[ms]dA[ms]dA[ms]dT*d[5mC]*dT*dT*dT*dA[ms]kT*kT*eA*eA; antisense) [Compound 1757574] = 93
• 1757567 (eA*e[5mC]eTeTeG*dG*dT*dG*dA*dA*dT*d[5mC]*dT*dT*dT*kAeTeT*eA*eA; antisense) [Compound 1757567] = 95

* * *

- Tested on: human APOE RNA
- experimentalProtocol: Dose-dependent inhibition of human APOE RNA in HepG2 cells, electroporation, 50,000 cells per well, RT-PCR normalized to GAPDH (Example 4, Tables 8-10)
- Assay type: cell-based
- measurementConditions: 3,200 nM; HepG2, electroporation, 24-hour treatment
Strand notation (5' to 3'): a small letter for the sugar, then the base; units joined by * are phosphorothioate-linked, units joined directly phosphodiester-linked; [ ] holds rarer units or linkages, { } end groups; capitals alone tell only the bases. [ms] = mesyl phosphoramidate linkage; k = constrained ethyl (cEt); [5mC] = 5-methylcytosine; d = 2'-deoxy (DNA)
measuredEndpoint: APOE RNA (% UTC)

- 1747051 (k[5mC]*kT*dT[ms]kG*dG[ms]kT*dG[ms]dA[ms]dA[ms]dT*d[5mC]*dT*dT*dT*dA[ms]dT*kT*dA[ms]dA[ms]kA; antisense) [Compound 1747051]: 42
- 1746806 (k[5mC]*kT*dT[ms]dG[ms]kG*dT[ms]dG[ms]dA[ms]dA[ms]dT*d[5mC]*dT*dT*dT*dA[ms]dT*dT[ms]kA*kA*kA; antisense) [Compound 1746806]: 39
- 1746790 (k[5mC]*dT[ms]kT*dG[ms]dG[ms]kT*dG[ms]dA[ms]dA[ms]dT*d[5mC]*dT*dT*dT*dA[ms]dT*kT*kA*dA[ms]kA; antisense) [Compound 1746790]: 24
- 1746800 (k[5mC]*dT[ms]kT*dG[ms]dG[ms]kT*dG[ms]dA[ms]dA[ms]dT*d[5mC]*dT*dT*dT*dA[ms]dT*kT*dA[ms]kA*kA; antisense) [Compound 1746800]: 39
- 1746791 (k[5mC]*dT[ms]dT[ms]kG*kG*dT[ms]dG[ms]dA[ms]dA[ms]dT*d[5mC]*dT*dT*dT*dA[ms]dT*kT*kA*dA[ms]kA; antisense) [Compound 1746791]: 21

* * *

- System: human APOE RNA
- experimentalProtocol: Activity in APOE C57BL/6NTac-Apoeem7250 knock-in mice, single ICV bolus, 4 weeks (Example 10)
- Type: in vivo
- measurementConditions: spinal cord; single ICV bolus 300 μg; 4 weeks post treatment; normalized to mouse Ppia
Strand notation (5' to 3'): a small letter for the sugar, then the base; units joined by * are phosphorothioate-linked, units joined directly phosphodiester-linked; [ ] holds rarer units or linkages, { } end groups; capitals alone tell only the bases. [ms] = mesyl phosphoramidate linkage; e = 2'-O-(2-methoxyethyl) (MOE); k = constrained ethyl (cEt); [5mC] = 5-methylcytosine; d = 2'-deoxy (DNA)
Consider the following substances and their measured APOE RNA (% control) Spinal Cord readings.
measuredEndpoint: APOE RNA (% control) Spinal Cord

* 1746806 (k[5mC]*kT*dT[ms]dG[ms]kG*dT[ms]dG[ms]dA[ms]dA[ms]dT*d[5mC]*dT*dT*dT*dA[ms]dT*dT[ms]kA*kA*kA; antisense) [Compound 1746806] | 75
* ^mCksTksTksGdzGdzTdzGdzAdzAdzTds^mCdsTdsTdsTdsAdsTdsTksAksAdzAk (antisense k[5mC]*kT*kT*dG[ms]dG[ms]dT[ms]dG[ms]dA[ms]dA[ms]dT*d[5mC]*dT*dT*dT*dA*dT*kT*kA*dA[ms]kA) [Compound No. 1785602] | 33
* 1746802 (k[5mC]*dT[ms]dT[ms]dG[ms]kG*kT*dG[ms]dA[ms]dA[ms]dT*d[5mC]*dT*dT*dT*dA[ms]dT*kT*dA[ms]kA*kA; antisense) [Compound 1746802] | 52
* 1746784 (k[5mC]*kT*kT*dG[ms]dG[ms]dT[ms]dG[ms]dA[ms]dA[ms]dT*d[5mC]*dT*dT*dT*dA[ms]dT*kT*kA*dA[ms]kA; antisense) [Compound 1746784] | 26
* 1778131: modified oligonucleotide complementary to human APOE RNA (eA*e[5mC]eTeTeGkG*dT*dG[ms]dA[ms]dA*dT*d[5mC]*dT*dT*dT*dA[ms]kTkT*eA*eA; antisense) [compound 1778131] | 49
